Sourced from patent US8314092B2

- target: 5-HT1E (Homo sapiens, UniProt P28566)
- Sequence (P28566 whole entry, species assumed): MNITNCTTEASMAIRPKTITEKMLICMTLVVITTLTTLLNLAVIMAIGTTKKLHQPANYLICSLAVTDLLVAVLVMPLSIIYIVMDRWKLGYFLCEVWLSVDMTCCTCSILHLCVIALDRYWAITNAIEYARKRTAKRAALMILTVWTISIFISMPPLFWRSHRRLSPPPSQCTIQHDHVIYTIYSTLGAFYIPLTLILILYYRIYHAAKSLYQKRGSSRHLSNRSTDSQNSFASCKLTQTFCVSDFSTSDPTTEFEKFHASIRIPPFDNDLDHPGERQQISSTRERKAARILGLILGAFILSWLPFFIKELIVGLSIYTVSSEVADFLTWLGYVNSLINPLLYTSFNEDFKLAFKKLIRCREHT
Counter-ions that a name gives are not always drawn.
quantity.kind: Ki

5-HT1E (Homo sapiens, UniProt P28566) Ki of Cc1cc2n(c1)Cc1cc(Cl)ccc1N=C2N1CCN(CC(C)(C)C(=O)O)CC1 [Example 13, dihydrochloride] is > 5.37 µM

====

- Test system: Wistar rats
- protocol.summary: Sleep and behavioral monitoring in rats (EEG, EMG, motion)
- Assay type: in vivo
- condition.info: rat, 3 mg/kg
- Procedure: Sleep and behavioral monitoring in rats: Representative compounds of the present invention are tested in rats for their ability to increase the amount of sleep or decrease sleep interruption or both without undesired effects such as inhibition of REM sleep, waking motor impairment, and/or rebound insomnia. […] Locomotor activity is monitored via a miniature transmitter (Minimitter PDT4000G, Philips Respironics, Bend, Oreg.) surgically placed into the abdomen. […]
Counter-ions that a name gives are not always drawn.
quantity.kind: REM sleep inhibition (in words)

Use these answered entries as a reference point.
| molecule | target | quantity.kind | measurement |
| --- | --- | --- | --- |
| CC(C)(CN1CCN(C2=Nc3ccc(Cl)cc3Cn3cc(Cl)cc32)CC1)C(=O)O [Example 19, dihydrochloride] | Wistar rats | REM sleep inhibition (in words) | without significant |
| CCc1cc2n(c1)Cc1cc(Cl)ccc1N=C2N1CCN(CC(C)(C)C(=O)O)CC1 [Example 16, dihydrochloride] | Wistar rats | REM sleep inhibition (in words) | without significant |
| CC(C)(CN1CCN(C2=Nc3ccc(Cl)cc3Cn3cc(Br)cc32)CC1)C(=O)O [Example 15, dihydrochloride] | Wistar rats | REM sleep inhibition (in words) | without significant |
| Cc1cc2n(c1)Cc1cc(Cl)ccc1N=C2N1CCN(CC(C)(C)C(=O)O)CC1 [Example 13, dihydrochloride] | Wistar rats | REM sleep inhibition (in words) | without significant |

Now examine the next entry.
Measured REM sleep inhibition (in words), CC(C)(CN1CCN(C2=Nc3ccc(Cl)cc3Cn3cc(C(F)(F)F)cc32)CC1)C(=O)O [Example 18, dihydrochloride] : without significant
